Listed next: entries and their corresponding half-life at 1 p.
# EXPERIMENT_SUMMARY: in vitro
# PARTICULARS: rat, rat liver microsomes, pH 7.4
Give the quantity in min, number only.

COMPOUND: N#Cc1ccccc1Cn1c(N2CCCC(N)C2)nc2ccccc2c1=O (stereo not drawn) [Example 1]
half-life at 1 p, min: 2.5
//
COMPOUND: N#Cc1ccccc1Cn1c(N2CCCC(N)C2)nc2ccc(F)cc2c1=O (stereo not drawn) [Example 6]
half-life at 1 p, min: 31

Hello, please tell me recorded half-life at 1 p for this one: COc1cc2nc(N3CCCC(N)C3)n(Cc3ccccc3C#N)c(=O)c2cc1OC (stereo not drawn) [Example 2]
107
